Source: patent US8178506B2

Test system: HSL
Experiment: HSL mRNA expression in adipocytes (real-time PCR)
Assay type: cell-based, human
Settings: differentiating adipocytes transfected with oligomeric compound; Table 75
In the oligonucleotide strings, read from the 5' end, every base follows the letter of its sugar. An asterisk marks phosphorothioate; unmarked linkages are phosphodiester. Other units and linkages are bracketed, terminal groups are in braces. A string of capitals states the bases alone. e = 2'-O-(2-methoxyethyl) (MOE); [5mC] = 5-methylcytosine
The reader will find reported HSL mRNA values listed item by item below.
Value Type: HSL mRNA

[[record]]
substance = "341796 (antisense UCAUACAGCUAGAUAACCAAAGA; all 2'-MOE, all phosphorothioate, methylation of C and T or U not given here) [compound 341796]"
meas_value = "67 percentage of untreated control (UTC)"

[[record]]
substance = "327965 (antisense eA*eT*e[5mC]*eA*e[5mC]*eA*eT*eA*eG*eG*eA*eA*eT*eA*eA*eA*eA*eA*eG*e[5mC]*e[5mC]*eA*eT*eA) [compound 327965]"
meas_value = "84 percentage of untreated control (UTC)"

[[record]]
substance = "340354 (antisense UCAGACCGAGACAAGUGCAAUG; all 2'-MOE, all phosphorothioate, methylation of C and T or U not given here) [compound 340354]"
meas_value = "56 percentage of untreated control (UTC)"

